# ASSAY_COMMENT: Contact toxicity against Aphidius colemani assessed as mortality at 400 mg/l after 24 hr
# Assay type: organism-based
# TEST_PARAMETERS: in vivo, other: contact

COMPOUND	mortality at 24 h
N#Cc1c(Cl)c(Cl)c(Cl)c(C#N)c1Cl [CHLOROTHALONIL]	30%

====

# ASSAY_COMMENT: Toxicity against Aphidius colemani assessed as mortality at 400 mg/l, po after 24 hr
# Format: organism-based
# TEST_PARAMETERS: in vivo
REPORTED_METRIC: mortality at 24 h (%)

MOLECULAR_STRING	REPORTED_METRIC	OBSERVED_RESULT
N#Cc1c(Cl)c(Cl)c(Cl)c(C#N)c1Cl	mortality at 24 h	0

====

# ASSAY_COMMENT: Toxicity against Aphidius colemani assessed as mortality at 400 mg/l, po after 24 hr relative to control
# Assay type: organism-based
# TEST_PARAMETERS: in vivo
REPORTED_METRIC: mortality at 24 h (%)

MOLECULAR_STRING	OBSERVED_RESULT
N#Cc1c(Cl)c(Cl)c(Cl)c(C#N)c1Cl	0
